Listed here: items and their measured Percentage erosion (%) of compression-coated tablets containing acetaminophen.
- MEASUREMENT_PROTOCOL: Determination of percentage erosion of core tablet
- Assay type: physicochemical
- EXPERIMENTAL_CONDITIONS: core: 5 parts acetaminophen + 10 parts of the filler; 3 hours in water at 37° C.
Units required after the number.

Qu. Param item = O=C(O)CC(O)C(=O)O (stereo not shown) ; retrieve measured Percentage erosion (%) of compression-coated tablets containing acetaminophen.
Ans. 79.3%

* * *

- MEASUREMENT_PROTOCOL: Determination of percentage erosion of core tablet
- Assay type: physicochemical
- EXPERIMENTAL_CONDITIONS: core: 9 parts Compound 1 solid dispersion + 6 parts of the filler; 3 hours in water at 37° C.
MEASURED_ATTRIBUTE: Percentage erosion (%) of compression-coated tablet containing Compound 1
Field format: number, assumed %, no unit text.

Examples with their reported Percentage erosion (%) of compression-coated tablet containing Compound 1 follow.
# MOLECULE, MEAS_VALUE
measured = [
    ("O=C(O)CC(O)(CC(=O)O)C(=O)O", 60.3),
    ("OC[C@H]1O[C@@H](O[C@H]2[C@H](O)[C@@H](O)C(O)O[C@@H]2CO)[C@H](O)[C@@H](O)[C@H]1O (some centres unmarked)", 24.0),
    ("N[C@@H](CC(=O)O)C(=O)O", 1.4),
]

Qu. For the molecule shown here, "O=C(O)CCC(=O)O" , give the reported Percentage erosion (%) of compression-coated tablet containing Compound 1.
Ans. 19.2

Qu. O=C(O)CC(O)C(=O)O (centres unmarked) , same question.
Ans. 75.0
